molecular target: RAC-alpha serine/threonine-protein kinase (Homo sapiens)
Sequence (P31749 whole entry): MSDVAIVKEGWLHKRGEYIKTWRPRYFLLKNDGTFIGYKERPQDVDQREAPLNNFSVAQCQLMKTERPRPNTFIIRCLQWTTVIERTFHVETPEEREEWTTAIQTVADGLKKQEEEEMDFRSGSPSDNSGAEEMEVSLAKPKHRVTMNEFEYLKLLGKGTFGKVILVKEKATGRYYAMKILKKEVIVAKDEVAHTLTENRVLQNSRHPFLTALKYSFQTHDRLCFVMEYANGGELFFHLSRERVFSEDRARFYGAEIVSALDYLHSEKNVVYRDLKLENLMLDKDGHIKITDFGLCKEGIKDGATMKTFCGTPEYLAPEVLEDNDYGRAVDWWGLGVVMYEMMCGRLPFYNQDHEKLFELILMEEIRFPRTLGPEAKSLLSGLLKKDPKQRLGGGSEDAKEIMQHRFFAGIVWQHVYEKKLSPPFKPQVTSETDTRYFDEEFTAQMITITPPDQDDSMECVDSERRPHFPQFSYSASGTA
readout name: IC50 (µM)
Field format: number, assumed µM, no unit text.

Form: Entry = NC(=O)c1ccc(NCc2ccccc2)c2cncnc12 | System = RAC-alpha serine/threonine-protein kinase (Homo sapiens) | IC50 = ____
57

* * *

target: Ribosomal protein S6 kinase beta-1 (Homo sapiens, UniProt P23443, T412E); test: P70S6K Enzyme Assay: P70S6K inhibitor compounds are diluted and plated in 96 well plates. A reaction mixture including the following components is then added to the compound plate to initiate the enzyme reaction; P70S6K (3 nM, T412E mutant, Millipore) is mixed with 24 uM ATP in an assay buffer containing 100 mM Hepes (pH 7.5), 5 mM MgCl2, 1 mM DTT, 0.015% Brij and 1 uM of the substrate peptide FITC-AHA-[…]-OH (derived from the S6 ribosomal protein sequence, FITC=fluorescein isothiocyanate, AHA=6-aminohexanoic acid). The reaction is incubated for 90 min at 25° C., before the addition of 10 mM EDTA to stop the reaction. The proportion of substrate and product (phosphorylated) peptide is analysed on a Caliper Life Sciences Lab Chip 3000, using a pressure of -1.4 psi, and upstream and downstream voltages of -3000 and -700 respectively. Product peaks are resolved before substrate peaks on the resulting chromatograms.
Sequence (P23443 whole entry T412E): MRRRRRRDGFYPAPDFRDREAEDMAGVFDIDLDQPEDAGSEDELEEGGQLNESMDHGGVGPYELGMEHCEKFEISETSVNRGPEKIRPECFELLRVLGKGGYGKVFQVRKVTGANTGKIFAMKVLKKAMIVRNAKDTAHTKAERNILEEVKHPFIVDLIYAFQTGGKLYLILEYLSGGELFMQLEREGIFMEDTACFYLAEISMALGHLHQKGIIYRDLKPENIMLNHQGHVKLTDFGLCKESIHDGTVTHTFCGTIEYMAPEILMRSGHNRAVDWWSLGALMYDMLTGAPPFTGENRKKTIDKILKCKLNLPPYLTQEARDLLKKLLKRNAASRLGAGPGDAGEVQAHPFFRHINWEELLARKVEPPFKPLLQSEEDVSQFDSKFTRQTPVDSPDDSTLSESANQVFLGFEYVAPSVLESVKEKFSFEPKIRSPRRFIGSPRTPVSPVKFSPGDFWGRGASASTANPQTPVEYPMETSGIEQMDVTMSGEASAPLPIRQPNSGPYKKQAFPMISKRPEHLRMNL
readout name: IC50 (nM)

Answered examples (2):
compound	experimental target	IC50 (nM)
NC(=O)c1ccc(NCc2ccccc2)c2cncnc12	Ribosomal protein S6 kinase beta-1 (Homo sapiens, UniProt P23443, T412E)	690
CN(Cc1ccc(Cl)c(Cl)c1)C1CCN(c2ccc(C(N)=O)c3ncncc23)C1 (racemic)	Ribosomal protein S6 kinase beta-1 (Homo sapiens, UniProt P23443, T412E)	570

(1) NC(=O)c1ccc(N2CCC(NCc3ccc(Cl)c(Cl)c3)C2)c2cncnc12 (racemic)
(2) NC(=O)c1ccc(NCC(c2ccccc2)N2CCNCC2)c2cncnc12 (racemic)
(3) NC(=O)c1ccc(NCCc2ccc(Cl)c(Cl)c2)c2cncnc12
(4) NC(=O)c1ccc(N2CCC(N)(C(=O)Nc3ccc(F)c(C(F)(F)F)c3)C2)c2cncnc12 (racemic)
# sort list by recorded IC50, greatest to least Form field (ranking): labels in requested order.
1, 4, 2, 3
(1: 490 nM, 4: 270 nM, 2: 170 nM, 3: 98 nM)
